# System name: Adenosine receptor A2a (Homo sapiens)
# Sequence (P29274 whole entry): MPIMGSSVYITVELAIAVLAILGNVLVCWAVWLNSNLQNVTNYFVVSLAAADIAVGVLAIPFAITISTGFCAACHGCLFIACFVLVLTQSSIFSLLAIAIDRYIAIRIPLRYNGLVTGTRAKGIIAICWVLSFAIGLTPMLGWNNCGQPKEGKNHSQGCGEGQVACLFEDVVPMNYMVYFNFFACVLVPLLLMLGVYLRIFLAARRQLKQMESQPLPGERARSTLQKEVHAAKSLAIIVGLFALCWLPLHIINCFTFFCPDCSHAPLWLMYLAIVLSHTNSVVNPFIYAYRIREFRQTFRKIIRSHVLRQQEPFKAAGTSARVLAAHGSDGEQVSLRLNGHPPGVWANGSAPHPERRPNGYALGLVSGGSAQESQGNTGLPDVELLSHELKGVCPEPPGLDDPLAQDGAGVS
Value kind: pKi
The quantity pKi is defined as the negative base-10 logarithm of the molar concentration.

Item O=C(COc1ccc(-c2cc3c([nH]2)c(=O)n(CC2CC2)c(=O)n3CC2CC2)cc1)Nc1ccccc1 was tested on Adenosine receptor A2a (Homo sapiens); the reported pKi is 7.81

Response field pKi (Adenosine receptor A2a (Homo sapiens)) for item CCCn1c(=O)c2[nH]c(-c3ccc(OC(CC)C(=O)Nc4ccc(F)cc4)cc3)cc2n(CCC)c1=O (centres undefined) : 7.72

Measured pKi for this entry CC(Oc1ccc(-c2cc3c([nH]2)c(=O)n(C)c(=O)n3C)cc1)C(=O)Nc1ccc(Br)cc1 (centres undefined) on Adenosine receptor A2a (Homo sapiens): 7.57

Form field pKi for item CCCn1c(=O)c2[nH]c(-c3ccc(OCC(=O)Nc4ncccc4O)cc3)cc2n(CCC)c1=O on Adenosine receptor A2a (Homo sapiens): 6.49

Assay Adenosine receptor A2a (Homo sapiens), sample CCCn1c(=O)c2[nH]c(-c3ccc(OC(CC)C(=O)Nc4ccccc4)cc3)cc2n(CCC)c1=O (centres undefined) , pKi read: 7.59

Summary: CCCn1c(=O)c2[nH]c(-c3ccc(OC(C)C(=O)Nc4ccc(OC)cc4)cc3)cc2n(CCC)c1=O (centres undefined) , Adenosine receptor A2a (Homo sapiens), pKi = 7.41

// pKi (Adenosine receptor A2a (Homo sapiens)) for CCCn1c(=O)c2[nH]c(-c3ccc(OCC(=O)O)cc3)cc2n(CCC)c1=O = 6.91

Response field pKi (Adenosine receptor A2a (Homo sapiens)) for item CCCn1c(=O)c2[nH]c(-c3ccc(OCC(=O)Nc4ccc(I)cc4)cc3)nc2n(CCC)c1=O : 5.23

Reported pKi (Adenosine receptor A2a (Homo sapiens)) for entry COc1cc(OCC(=O)Nc2ccccc2)ccc1-c1cc2c([nH]1)c(=O)n(C)c(=O)n2C is 5.98
